- study_target: T1, 人的PD-1胞外区与人Fc融合蛋白(PD-1-ECD-hFc) (human, UniProt Q15116 25-170)
- T1 construct: extracellular domain; Coated on ELISA plates; also called PD-1-hFc; not shown: human Fc
- T1 sequence (Q15116 25-170): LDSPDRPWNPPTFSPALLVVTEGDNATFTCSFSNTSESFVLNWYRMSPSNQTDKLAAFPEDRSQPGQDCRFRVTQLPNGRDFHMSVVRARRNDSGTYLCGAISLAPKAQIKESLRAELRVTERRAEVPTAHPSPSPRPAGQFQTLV
- assay_comment: ELISA, PD-1-ECD-hFc coated, goat anti-mouse IgG detection
Could you please report measured EC50 for the items listed next?
Answers are plain numbers, in ng/mL.

Known results for binders:
>  <binder>
5F7 (antibody, V domains shown, Mouse monoclonal antibody purified from hybridoma supernatant by Protein A; also called 鼠源PD-1单克隆抗体5F7; PD-1杂交瘤抗体5F7) VH: EVMLVESGGDLVKPGGSLKLSCAASGFTFSSYMMSWVRQTPEKRLEWVAAISGGGGDTYYPDSVKGRFTISRDNAKNTLYLQMSSLRSEDTALYYCARRVVYAMDCWGQGTSVTVSS VL: DIQMTQSPASQSASLGESVTITCLASQSIGTWLVWYQQKPGKSPQLLISAATSLADGVPSRFSGSGSGTKFSFKISSLQAEDFVSYYCQQLYIIPWTFGGGTKLEIK

>  <parameter_measured>
EC50

>  <measured_number>
1.23

$$$$
>  <binder>
5H10 (antibody, V domains shown, Mouse monoclonal antibody purified from hybridoma supernatant by Protein A; also called 鼠源PD-1单克隆抗体5H10; PD-1杂交瘤抗体5H10) VH: EVQLVESGGGLVKPGGSLKLSCAASGFTFSDYGMHWVRQAPEKGLEWVAYISGDSNTIYYADTVKGRFTISRDNAKNTLFLQMTSLRSEDTAMYYCTKRGPYYGYTHYFDYWGQGTTLTVSS VL: SIVMTQTPKFLLVSAGDRVTMTCKASQSVSNDVVWYQQKPGQSPKLLIYYASKRYTGVPDRFTGNGYGTDFTFTISTVQAEDLAVYFCQQDYSSPWTFGGGTKLEIK

>  <parameter_measured>
EC50

>  <measured_number>
1.09

$$$$

Continue with the binder presented below.
Recorded EC50 of 4B5 (antibody, V domains shown, Mouse monoclonal antibody purified from hybridoma supernatant by Protein A; also called 鼠源PD-1单克隆抗体4B5; PD-1杂交瘤抗体4B5) VH: EVILVESGGDLVKPGGSLKLSCAASGFTFSSYMMSWVRQTPEKRLEWVATISGGGANTYYLDSMKGRFTISRDNAKNILYLQMSSLRSEDTAFYYCARQSDRGFPYWGQGTLVTVSA VL: DIQMTQSPASQSASLGESVTITCLASQPIGTWLAWYQQKPGTSPQLLIFAATTLTDGVPSRFSGSGSGTKFSFKISSLQAEDFVSYYCQQFSSIPYTFGGGTRLEIK , please. 1.75

Reference source for all entries: patent CN114316047A
